// provenance: patent US20260242735A1

biological target: human CD33 F61A (human, UniProt P20138 18-364); experiment: alanine scan, flow cytometry;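 also: HEK293-T cells transiently expressing single-residue alanine mutants of CD33 (alanine swapped to serine), antibody binding read by fluorescence in duplicate, background-subtracted, expressed relative to wild-type CD33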
Sequence (P20138 18-364 F61A limits assumed): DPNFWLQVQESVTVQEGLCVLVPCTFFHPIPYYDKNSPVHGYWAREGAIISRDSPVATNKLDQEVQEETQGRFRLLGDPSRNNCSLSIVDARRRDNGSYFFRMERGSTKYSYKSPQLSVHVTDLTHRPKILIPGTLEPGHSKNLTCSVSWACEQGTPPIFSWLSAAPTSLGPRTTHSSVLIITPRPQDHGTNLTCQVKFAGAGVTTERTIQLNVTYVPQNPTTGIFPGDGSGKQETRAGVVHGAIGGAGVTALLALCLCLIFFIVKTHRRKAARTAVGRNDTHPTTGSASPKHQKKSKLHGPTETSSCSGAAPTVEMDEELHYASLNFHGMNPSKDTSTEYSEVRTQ
ASSAY_ENDPOINT: Mean % WT Binding

Specify reported Mean % WT Binding for the binder shown: Refmab #1 (antibody, V domains shown, Full-length format is human IgG1 (Absolute Antibody Ab00283-10.0); The alanine scan used IgG or Fab; also called hP67.6) VH: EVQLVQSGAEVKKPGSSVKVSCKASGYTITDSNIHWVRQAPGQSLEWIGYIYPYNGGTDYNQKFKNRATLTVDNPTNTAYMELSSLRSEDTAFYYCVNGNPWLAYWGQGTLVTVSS VL: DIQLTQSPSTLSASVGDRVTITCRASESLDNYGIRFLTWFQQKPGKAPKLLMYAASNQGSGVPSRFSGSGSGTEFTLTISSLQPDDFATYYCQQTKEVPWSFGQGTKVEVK
95 % WT
